B1: TPR 5TU (parent)
chain: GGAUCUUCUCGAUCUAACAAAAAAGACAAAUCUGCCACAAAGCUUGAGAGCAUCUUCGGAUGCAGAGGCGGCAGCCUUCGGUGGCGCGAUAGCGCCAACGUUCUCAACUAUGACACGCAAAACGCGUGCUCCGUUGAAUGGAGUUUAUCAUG

variants of: B1; assay: polymerase ribozyme fitness, log enrichment relative to wild type (log ratio); higher = more active; in vitro selection for triplet polymerase activity
This sample holds only a part of the variants without activity.

{"sequence-change": "A22G A40C U139G", "polymerase ribozyme fitness (log ratio)": 0.649}
{"sequence-change": "A24G A73G G86A G141U U145A A150U", "polymerase ribozyme fitness (log ratio)": "≤ -4.2"}
{"sequence-change": "C93U C96A", "polymerase ribozyme fitness (log ratio)": -1.65}
{"sequence-change": "U4G", "polymerase ribozyme fitness (log ratio)": -0.0773}
{"sequence-change": "C32G C51U G94U", "polymerase ribozyme fitness (log ratio)": "≤ -4.2"}
{"sequence-change": "G81C C125A G140C", "polymerase ribozyme fitness (log ratio)": -3.98}
{"sequence-change": "C8A A17U A26U G48U G68U C93G C132G G141C U148G", "polymerase ribozyme fitness (log ratio)": "≤ -4.2"}
{"sequence-change": "A17G G141C", "polymerase ribozyme fitness (log ratio)": 0.607}
{"sequence-change": "A23U U44A U45A A66U C95U A120G", "polymerase ribozyme fitness (log ratio)": "≤ -4.2"}
{"sequence-change": "A29U C87U A122U U145C", "polymerase ribozyme fitness (log ratio)": -3.85}
{"sequence-change": "A12U U13A A52C C87A G94U U134A A138U", "polymerase ribozyme fitness (log ratio)": "≤ -4.2"}
{"sequence-change": "A39G C75U C85U", "polymerase ribozyme fitness (log ratio)": -3.44}
{"sequence-change": "G11U U44A G92C", "polymerase ribozyme fitness (log ratio)": "≤ -4.2"}
{"sequence-change": "U15G C93A U109C", "polymerase ribozyme fitness (log ratio)": "≤ -4.2"}
{"sequence-change": "C10U C14G C76U A106G A107G C108U", "polymerase ribozyme fitness (log ratio)": "≤ -4.2"}
{"sequence-change": "C87U A150G G152U", "polymerase ribozyme fitness (log ratio)": "≤ -4.2"}
{"sequence-change": "G59U C69G", "polymerase ribozyme fitness (log ratio)": -1.07}
{"sequence-change": "C5U C27G C95U C96U G141C", "polymerase ribozyme fitness (log ratio)": "≤ -4.2"}
{"sequence-change": "G34A C95U G136A", "polymerase ribozyme fitness (log ratio)": -0.0966}
{"sequence-change": "C8A U9C A30U C87U C95U C129A", "polymerase ribozyme fitness (log ratio)": "≤ -4.2"}
{"sequence-change": "A23C A41C C75A G84A A115U G152A", "polymerase ribozyme fitness (log ratio)": "≤ -4.2"}
{"sequence-change": "U6G A12U A22U A64U G88C C95U", "polymerase ribozyme fitness (log ratio)": "≤ -4.2"}
{"sequence-change": "A3C C8U C18U A49G C87A", "polymerase ribozyme fitness (log ratio)": "≤ -4.2"}
{"sequence-change": "A47U C51U A52C U53G U61A A64U C76U G83U U146C", "polymerase ribozyme fitness (log ratio)": "≤ -4.2"}
{"sequence-change": "A52G G141A", "polymerase ribozyme fitness (log ratio)": -1.24}
{"sequence-change": "A23G A28G A39U A40U U44A U61A U78G C85U U151G", "polymerase ribozyme fitness (log ratio)": "≤ -4.2"}
{"sequence-change": "U56A C96U G133A", "polymerase ribozyme fitness (log ratio)": "≤ -4.2"}
{"sequence-change": "A21G C85U C96U C105U A106C A138G", "polymerase ribozyme fitness (log ratio)": "≤ -4.2"}
{"sequence-change": "U130C U144C A147C", "polymerase ribozyme fitness (log ratio)": -1.95}
{"sequence-change": "G48C G50A U55A", "polymerase ribozyme fitness (log ratio)": -3.03}
{"sequence-change": "U53C G86U C96A U146A", "polymerase ribozyme fitness (log ratio)": -2.73}
{"sequence-change": "U13A C18U U55A A119G", "polymerase ribozyme fitness (log ratio)": -1.83}
{"sequence-change": "G50A C95U C116U", "polymerase ribozyme fitness (log ratio)": -1.99}
{"sequence-change": "C14G U53A C54A U61G G62U U146C", "polymerase ribozyme fitness (log ratio)": "≤ -4.2"}
{"sequence-change": "C14U A40G U56A G59C C76U A121U", "polymerase ribozyme fitness (log ratio)": -4.02}
{"sequence-change": "A21U C38A", "polymerase ribozyme fitness (log ratio)": 0.268}
{"sequence-change": "C27A G46A U53A U56G A91C A106C A110G A138G", "polymerase ribozyme fitness (log ratio)": "≤ -4.2"}
{"sequence-change": "C95U A107G", "polymerase ribozyme fitness (log ratio)": -4.16}
{"sequence-change": "C96U C105G", "polymerase ribozyme fitness (log ratio)": -2.46}
{"sequence-change": "A12G C93U", "polymerase ribozyme fitness (log ratio)": -1.21}
{"sequence-change": "G59U A98G", "polymerase ribozyme fitness (log ratio)": 0.162}
{"sequence-change": "C5U A52C C76U C93A C116U C123G", "polymerase ribozyme fitness (log ratio)": -3.61}
{"sequence-change": "C5U C87U", "polymerase ribozyme fitness (log ratio)": 0.457}
{"sequence-change": "G34U C96G", "polymerase ribozyme fitness (log ratio)": -2.91}
{"sequence-change": "A40G U53G G84A A110G G136U", "polymerase ribozyme fitness (log ratio)": "≤ -4.2"}
{"sequence-change": "U9A G11A C14U A19G C76A U82G C103A C116U", "polymerase ribozyme fitness (log ratio)": "≤ -4.2"}
